Experiment: molar heat capacity at constant pressure
Conditions: 334.15 K; 101.33 kPa; Liquid
value_kind: molar heat capacity at constant pressure (J/K/mol)

> print(dat)
                         molecule  value.observed
 1      CCCCCCCl [1-chlorohexane]          228.99
 2         CCCCBr [1-bromobutane]          170.63
 3   CCCCCCCCCCBr [1-bromodecane]          356.14
 4        CCCCCl [1-chlorobutane]          167.78
 5       CCCCCCBr [1-bromohexane]          231.21
 6    CCCCCCCCCBr [1-bromononane]          324.63
 7  CCCCCCCCCCCl [1-chlorodecane]          352.76
 8     CCCCCCCBr [1-bromoheptane]           262.5
 9       CCCCCBr [1-bromopentane]          201.48
10    CCCCCCCCl [1-chloroheptane]          258.84
11      CCCCCCl [1-chloropentane]          198.46
12    CCCCCCCCCl [1-chlorooctane]          290.13

###

Assay: molar heat capacity at constant pressure
Details: 309.15 K; 101.33 kPa; Liquid
value_kind: molar heat capacity at constant pressure (J/K/mol)

> print(dat)
   structure.smiles                                value.kind  value.observed
1          CCCCCCCl  molar heat capacity at constant pressure          219.99
2             CCCBr  molar heat capacity at constant pressure          135.35
3        CCCCCCCCCl  molar heat capacity at constant pressure          279.28
4       CCCCCCCCCBr  molar heat capacity at constant pressure          313.01
5            CCCCCl  molar heat capacity at constant pressure          161.59
6            CCCCBr  molar heat capacity at constant pressure          164.78
7         CCCCCCCBr  molar heat capacity at constant pressure          253.19
8           CCCCCBr  molar heat capacity at constant pressure          194.17

###

Experiment: molar heat capacity at constant pressure
Conditions: 314.15 K; 101.33 kPa; Liquid
± gives the expanded uncertainty stated by the source.
value_kind: molar heat capacity at constant pressure

> print(dat)
                         compound         value.observed
 1        CCCCl [1-chloropropane]  134.38 ± 0.67 J/K/mol
 2       CCCCCBr [1-bromopentane]   195.6 ± 0.98 J/K/mol
 3    CCCCCCCCCl [1-chlorooctane]   281.58 ± 1.4 J/K/mol
 4    CCCCCCCCl [1-chloroheptane]    251.6 ± 1.3 J/K/mol
 5       CCCCCCBr [1-bromohexane]   224.63 ± 1.1 J/K/mol
 6         CCCBr [1-bromopropane]  136.23 ± 0.68 J/K/mol
 7     CCCCCCCBr [1-bromoheptane]      255 ± 1.3 J/K/mol
 8      CCCCCCl [1-chloropentane]  192.65 ± 0.96 J/K/mol
 9   CCCCCCCCCCBr [1-bromodecane]   346.34 ± 1.7 J/K/mol
10        CCCCCl [1-chlorobutane]  162.92 ± 0.81 J/K/mol
11         CCCCBr [1-bromobutane]  165.94 ± 0.83 J/K/mol
12    CCCCCCCCCBr [1-bromononane]   315.18 ± 1.6 J/K/mol
13  CCCCCCCCCCCl [1-chlorodecane]   342.42 ± 1.7 J/K/mol
14      CCCCCCCl [1-chlorohexane]   221.78 ± 1.1 J/K/mol

This collection of values is drawn from the NIST ThermoML archive (doi:10.1021/je049652j).
